- tested-on: PDE 4
- assay-summary: Inhibition of phosphodiesterase 4 (enzyme preparation from human PMNL, [3H]-cAMP)
- experimental-context: PDE 4 from human PMNL cytosol, 0.5 μM [3H]-cAMP
- Description: The PDE 4 activity is determined in enzyme preparations from human polymorphonuclear […] (PMNL) and the PDE 2, 3 and 5 activity is determined with PDE from human thrombocytes. Human blood was anti-coagulated with citrate. By centrifuging at 700×g for 20 minutes at room temperature, the thrombocyte-rich plasma in the supernatant is separated from the erythrocytes and leukocytes. The thrombocytes are lysed by ultrasound and used in the PDE 3 and PDE 5 assays. […]
pIC50: −log10 of the molar value.
Listing of entries alongside the reported pIC50.
readout-type: pIC50

INSERT INTO measurements (molecule_smiles, tested_on, readout_type, numeric_value) VALUES
  ('O=C(Nc1c(Cl)cncc1Cl)C(=O)c1cn(Cc2ccc(F)cc2)c2ncccc12', 'PDE 4', 'pIC50', 8.40),
  ('CC(C)Cn1cc(C(=O)Nc2c(Cl)cncc2Cl)c2cccnc21', 'PDE 4', 'pIC50', 5.85),
  ('O=C(Nc1c(Cl)cncc1Cl)C(=O)c1cn(CC2CC2)c2ncccc12', 'PDE 4', 'pIC50', 8.40),
  ('O=C(Nc1c(Cl)cncc1Cl)C(=O)c1cn(Cc2cccc(O)c2)c2ncccc12', 'PDE 4', 'pIC50', 8.52),
  ('O=C(Nc1c(Cl)cccc1Cl)C(=O)c1cn(Cc2ccc(Cl)cc2)c2ncccc12', 'PDE 4', 'pIC50', 7.51),
  ('COc1ccc(Cn2cc(C(=O)C(=O)Nc3c(Cl)cncc3Cl)c3cccnc32)cc1', 'PDE 4', 'pIC50', 8.10),
  ('C=C(C)Cn1cc(C(=O)C(=O)Nc2c(Cl)cncc2Cl)c2cccnc21', 'PDE 4', 'pIC50', 8.52),
  ('O=C(Nc1ccncc1)C(=O)c1cn(Cc2ccc(Cl)cc2)c2ncccc12', 'PDE 4', 'pIC50', 7.51),
  ('O=C(Nc1c(Cl)cncc1Cl)C(=O)c1cn(Cc2ccc(O)cc2)c2ncccc12', 'PDE 4', 'pIC50', 9.00);

---

- tested-on: PDE 4
- assay-summary: Inhibition of phosphodiesterase 4 (enzyme preparation from human PMNL, [3H]-cAMP)
- experimental-context: PDE 4 from human PMNL cytosol, 0.5 μM [3H]-cAMP
pIC50: −log10 of the molar value.
readout-type: pIC50

INSERT INTO assay_data (molecule_smiles, readout_type, numeric_value) VALUES
  ('O=C(Nc1c(Cl)cncc1Cl)C(=O)c1cn(Cc2ccc(Cl)cc2)c2ncccc12', 'pIC50', 8.70),
  ('Cc1[nH]c(=O)[nH]c(=O)c1NC(=O)C(=O)c1cn(Cc2ccc(F)cc2)c2ncccc12', 'pIC50', 6.01),
  ('O=C(NCc1ccncc1)c1cn(CC2CC2)c2ncccc12', 'pIC50', 6.15),
  ('Cc1ccc(Cn2cc(C(=O)C(=O)Nc3c(Cl)cncc3Cl)c3cccnc32)cc1', 'pIC50', 8.70),
  ('COc1cccc(Cn2cc(C(=O)C(=O)Nc3c(Cl)cncc3Cl)c3cccnc32)c1', 'pIC50', 8.30),
  ('Cc1noc(C)c1Cn1cc(C(=O)C(=O)Nc2c(Cl)cncc2Cl)c2cccnc21', 'pIC50', 6.95),
  ('CCCCCCn1cc(C(=O)C(=O)Nc2c(Cl)cncc2Cl)c2cccnc21', 'pIC50', 7.68),
  ('CC(C)Cn1cc(C(=O)C(=O)Nc2c(Cl)cncc2Cl)c2cccnc21', 'pIC50', 8.70),
  ('O=C(Nc1ccncc1)C(=O)c1cn(Cc2ccc(F)cc2)c2ncccc12', 'pIC50', 7.24);

---

- System: actively sensitized Brown Norway Rats
- assay-summary: Inhibition of the late phase eosinophilia 48 hours after inhalative ovalbumin challenge
- Format: in vivo, rat
- experimental-context: 10 mg/kg p.o., 2 h before allergen challenge; BAL 48 h after challenge
As shown below, each of these compounds has a reported Inhibition of Eosinophilia value.
readout-type: Inhibition of Eosinophilia (%)

INSERT INTO assay_data (molecule_smiles, readout_type, units, numeric_value) VALUES
  ('COc1ccc(Cn2cc(C(=O)C(=O)Nc3c(Cl)cncc3Cl)c3cccnc32)cc1', 'Inhibition of Eosinophilia', '%', 32),
  ('CC(C)Cn1cc(C(=O)C(=O)Nc2c(Cl)cncc2Cl)c2cccnc21', 'Inhibition of Eosinophilia', '%', 70),
  ('O=C(Nc1c(Cl)cncc1Cl)C(=O)c1cn(Cc2ccc(F)cc2)c2ncccc12', 'Inhibition of Eosinophilia', '%', 59),
  ('O=C(Nc1c(Cl)cncc1Cl)C(=O)c1cn(Cc2ccc(Cl)cc2)c2ncccc12', 'Inhibition of Eosinophilia', '%', 70);

---

Counter-ions that a name gives are not always drawn.
readout-type: melting point

INSERT INTO assay_data (molecule, readout_type, result) VALUES
  ('C=C(C)Cn1cc(C(=O)C(=O)Nc2c(Cl)cncc2Cl)c2cccnc21', 'melting point', '114 to 116 °C'),
  ('O=C(Nc1c(Cl)cncc1Cl)C(=O)c1cn(Cc2ccc(O)cc2)c2ncccc12', 'melting point', '140 to 142 °C'),
  ('O=C(Nc1c(Cl)cncc1Cl)C(=O)c1cn(Cc2ccc(Cl)cc2)c2ncccc12', 'melting point', '205 to 207 °C'),
  ('Cc1noc(C)c1Cn1cc(C(=O)C(=O)Nc2c(Cl)cncc2Cl)c2cccnc21', 'melting point', '196 to 198 °C'),
  ('CC(C)Cn1cc(C(=O)C(=O)Nc2c(Cl)cncc2Cl)c2cccnc21', 'melting point', '152 to 154 °C'),
  ('O=C(Nc1c(Cl)cncc1Cl)C(=O)c1cn(CC2CC2)c2ncccc12', 'melting point', '215 to 218 °C'),
  ('O=C(Nc1c(Cl)cncc1Cl)C(=O)c1cn(Cc2cccc(O)c2)c2ncccc12', 'melting point', '241 to 244 °C'),
  ('COc1cccc(Cn2cc(C(=O)C(=O)Nc3c(Cl)cncc3Cl)c3cccnc32)c1', 'melting point', '165 to 167 °C'),
  ('Cc1[nH]c(=O)[nH]c(=O)c1NC(=O)C(=O)c1cn(Cc2ccc(F)cc2)c2ncccc12', 'melting point', '297 to 300 °C (dec.)'),
  ('O=C(Nc1ccncc1)C(=O)c1cn(Cc2ccc(F)cc2)c2ncccc12 (as salt: HCl)', 'melting point', '275 to 278 °C (dec.)'),
  ('O=C(Nc1c(Cl)cccc1Cl)C(=O)c1cn(Cc2ccc(Cl)cc2)c2ncccc12', 'melting point', '166 to 168 °C'),
  ('COc1ccc(Cn2cc(C(=O)C(=O)Nc3c(Cl)cncc3Cl)c3cccnc32)cc1', 'melting point', '165 to 167 °C'),
  ('CCCCCCn1cc(C(=O)C(=O)Nc2c(Cl)cncc2Cl)c2cccnc21', 'melting point', '165 to 167 °C'),
  ('Cc1ccc(Cn2cc(C(=O)C(=O)Nc3c(Cl)cncc3Cl)c3cccnc32)cc1', 'melting point', '176 to 178 °C'),
  ('O=C(Nc1ccncc1)C(=O)c1cn(Cc2ccc(Cl)cc2)c2ncccc12 (as salt: HCl)', 'melting point', '280 to 283 °C (dec.)');
